Below, each entry is listed alongside its reported TGI.
test system: UACC-62 melanoma; test: NCI tumour cell line growth inhibition, 48 h

Example compounds with recorded TGI:
COc1ccc(C(=O)N2N=C(c3ccc(Br)cc3)CC2c2cn(-c3ccccc3)nc2-c2ccccc2)cc1 (stereo not given): > 50 µM
CC(=O)N(C(C)=O)c1c(N)n(C)c(=O)[nH]c1=O: > 100 µM
Cc1cc2nc3[nH]c4c(Cl)cc(Cl)cc4c3nc2cc1C: > 100 µM
O=S(=O)(O)c1ccc(-c2c3nc(c(-c4ccc(S(=O)(=O)O)cc4)c4ccc([nH]4)c(-c4ccc(S(=O)(=O)O)cc4)c4nc(c(-c5ccc(S(=O)(=O)O)cc5)c5ccc2[nH]5)C=C4)C=C3)cc1: > 100 µM
O=C(NC(N1CCN(c2cc3c(cc2F)c(=O)c(C(=O)O)cn3C2CC2)CC1)(C(F)(F)F)C(F)(F)F)c1ccccc1: > 100 µM
CCc1c(-c2ccccc2)[nH]c2ccccc2c1=O: > 100 µM
C[C@@H]1OC(=O)C[C@H]2CC(=O)N(CCC3CN(C(=O)c4ccccc4)c4ccccc43)C[C@@H]21 (stereo not given in full): > 100 µM
CCOC(=O)c1sc2c(sc(=O)n2-c2ccccc2)c1O: > 100 µM
COc1ccc2c(c1)C(=Nc1ccc(F)c(F)c1F)c1c-2c(Nc2ccc(F)c(F)c2F)nc2ccccc12: > 55.1 µM

Read the next record carefully.
Quote TGI reported for COc1ccc(C2Oc3ccc(O)cc3[C@@H]2C)cc1OC (stereo not given in full) please.
> 100 µM
